Reference for the values: patent US20240228562A1

Target: T1, recombinant human CTGF-Fc protein (Creative Biomart) (human)
T1 construct: Bought; also called human CTGF with a human IgG1 Fc Tag
T1 sequence (chain, as listed by the source limits assumed): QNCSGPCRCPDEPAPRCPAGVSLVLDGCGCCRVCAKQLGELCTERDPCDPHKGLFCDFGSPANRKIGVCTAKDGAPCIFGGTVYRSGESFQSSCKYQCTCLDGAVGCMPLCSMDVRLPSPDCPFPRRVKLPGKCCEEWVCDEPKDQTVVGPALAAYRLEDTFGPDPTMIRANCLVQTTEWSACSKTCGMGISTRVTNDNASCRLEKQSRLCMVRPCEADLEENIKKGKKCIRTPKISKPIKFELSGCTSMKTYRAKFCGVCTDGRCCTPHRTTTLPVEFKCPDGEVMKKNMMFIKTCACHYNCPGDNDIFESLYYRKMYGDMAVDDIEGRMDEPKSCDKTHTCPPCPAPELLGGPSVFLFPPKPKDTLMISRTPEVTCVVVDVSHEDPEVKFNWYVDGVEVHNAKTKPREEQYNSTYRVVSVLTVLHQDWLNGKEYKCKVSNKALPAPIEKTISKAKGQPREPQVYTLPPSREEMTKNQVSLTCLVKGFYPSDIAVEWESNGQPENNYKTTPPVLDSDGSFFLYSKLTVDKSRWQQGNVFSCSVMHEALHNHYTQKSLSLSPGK
Experiment: SPR (Biacore)
endpoint-name: koff (s⁻¹)
Write the value in s⁻¹ as a bare number.

Recorded result, lipocalin mutein of SEQ ID NO: 25 (designed binder, Parent hNGAL mutein; also called hNGAL mutein) QDSTSDLIPAPPLSKVPLQQNFQDNQFHGKWYVVGMAGNFRLREDKDPSKMGATIYELKEDKSYNVTQVQFDDKKCLYVIETFVPGSQPGEFTLGAIKSFPGFTSQLVRVVSTNYNQHAMVFFKKVYQNREVFWITLYGRTKELTSELKENFIRFSKSLGLPENHIVFPVPIDQCIDGSAWSHPQFEK , koff: 0.000248

Recorded result, lipocalin mutein of SEQ ID NO: 31 (designed binder, also called hNGAL mutein; not shown: C-terminal His-tag) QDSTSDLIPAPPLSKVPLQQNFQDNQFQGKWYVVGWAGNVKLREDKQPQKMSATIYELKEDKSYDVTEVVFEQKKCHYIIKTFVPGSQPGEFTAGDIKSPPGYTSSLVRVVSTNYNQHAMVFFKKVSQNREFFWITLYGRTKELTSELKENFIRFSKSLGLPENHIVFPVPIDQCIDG , koff: 4.85e-05

Recorded result, lipocalin mutein of SEQ ID NO: 9 (designed binder, Parent hNGAL mutein; also called hNGAL mutein) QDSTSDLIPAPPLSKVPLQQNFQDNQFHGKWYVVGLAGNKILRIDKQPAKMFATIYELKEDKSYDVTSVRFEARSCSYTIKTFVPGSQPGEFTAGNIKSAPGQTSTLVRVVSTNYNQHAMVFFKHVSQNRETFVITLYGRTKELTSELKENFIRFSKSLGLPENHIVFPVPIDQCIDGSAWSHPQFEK , koff: 0.00102
